- System: Escherichia coli
- Test Protocol: Antimicrobial activity against Escherichia coli B3704 after overnight incubation by microdilution broth susceptibility assay
- Assay type: functional
Readout Type: MIC (µM)

# get_value(readout='MIC', item= CCN(CC)C(=O)c1ccc(-n2nc(C(=O)N(CC)CC)c(C(=O)c3ccccc3)c2-c2ccccc2)cc1 )
123

What MIC value was documented for this compound, CCCCCNC(=O)c1ccc(-n2nc(C(=O)NCCCCC)c(C(=O)c3ccccc3)c2-c2ccccc2)cc1 ?
116

Please report the recorded MIC for O=C(O)c1ccc(-n2nc3c(=O)[nH]nc(-c4ccccc4)c3c2-c2ccccc2)cc1 .
157

So what does the record say about MIC for O=C(O)c1ccc(-n2nc3c(=O)n(-c4ccccc4)nc(-c4ccccc4)c3c2-c2ccccc2)cc1 ?
132
